System: E. coli BL21
Assay: MIC against Gram-negative bacteria: E. coli BL21
Assay type: cell-based
Details: 10 h cultivation at 37° C., 5×10^5 CFU/mL, two-fold serial dilution
Form field: MIC E. coli BL21 (one value per entry).
QUANTITY: MIC E. coli BL21 (µg/mL)

INSERT INTO measurements (substance, quantity, observed_value) VALUES
  ('PRT1086 (HFKPCRDKDLAYCLNDGECFVIETLTGSHKHCRCKEGYQGVRCD; listed as Homo sapiens)', 'MIC E. coli BL21', 25),
  ('PRT1069 (VTNPCDRKKCEWLCLLSPSGPVCTCPNGKRLDNGTCV; listed as Homo sapiens)', 'MIC E. coli BL21', 50),
  ('PRT1180 (DIDYCEPNPCQNGAQCYNRASDYFCKCPEDYEGKNCS; listed as Homo sapiens)', 'MIC E. coli BL21', 12.5),
  ('PRT1105 (EIDECWSQPCLNGATCQDALGAYFCDCAPGFLGDHCE; listed as Homo sapiens)', 'MIC E. coli BL21', 25),
  ('PRT1056 (DQDDCAPVGCSMYARCISEGEDATCQCLKGFAGDGKLCS; listed as Homo sapiens)', 'MIC E. coli BL21', 25),
  ('PRT1079 (DQCSLNNGGCSHNCSVAPGEGIVCSCPLGMELGPDNHTCQ; listed as Homo sapiens)', 'MIC E. coli BL21', 12.5),
  ('PRT1125 (LCDQCVTSPGCLHGLCGEPGQCICTDGWDGELCD; listed as Homo sapiens)', 'MIC E. coli BL21', 12.5),
  ('PRT1122 (DVDECLSDPCLHGGTCSDTVAGYICRCPETWGGRDCS; listed as Homo sapiens)', 'MIC E. coli BL21', 12.5),
  ('PRT1099 (PSTVCGNEKTNLTCYNGGNCTEFQTELKCMCRPGFTGEWCE; listed as Homo sapiens)', 'MIC E. coli BL21', 50),
  ('PRT1115 (PTLPCEANPCLNGGTCRAAGGVSECICNARFSGQFCE; listed as Homo sapiens)', 'MIC E. coli BL21', 25),
  ('PRT1161 (DIDECASHPCKNGATCIDQPGNYFCQCVPPFKVVDGFSCL; listed as Homo sapiens)', 'MIC E. coli BL21', 12.5),
  ('PRT1191 (AEHACTSNPCANGGSCHEVPSGFECHCPSGWSGPTCA; listed as Homo sapiens)', 'MIC E. coli BL21', 25);

----------
Form field: MIC C. diversus (one value per entry).
System: Citrobacter diversus
Assay: MIC against Gram-negative bacteria: Citrobacter diversus
Assay type: cell-based
Conditions: 10 h cultivation at 37° C., 5×10^5 CFU/mL, two-fold serial dilution
Protocol: 1. Gram-negative bacteria, such as E. coli BL21, Pseudomonas aeruginosa, Klebsiella pneumonia, Enterobacter cloacae, Aeromonas hydrophila, Citrobacter diversus, Moraxella catarrhalis, Proteus mirabilis, Proteus vulgaris, Serratia marcescens, etc were streaked on solid LB medium and cultured respectively. Then, typical clones were picked, inoculated into common liquid LB medium respectively, and cultured at 37° C. with shaking at 185 rpm until the McFarland specific turbidity was 0.5. […]
QUANTITY: MIC C. diversus (µg/mL)

INSERT INTO measurements (substance, unit_text, observed_value) VALUES
  ('PRT1189 (ECVPYPGCVHGSCVEPWQCNCETNWGGLLCD; listed as Homo sapiens)', 'µg/mL', 50),
  ('PRT1062 (LQGNCSRLGCQHHCVPTLDGPTCYCNSSFQLQADGKTCK; listed as Homo sapiens)', 'µg/mL', 50),
  ('PRT1104 (EVDECASDPCKNEATCLNEIGRYTCICPHNYSGVNCE; listed as Homo sapiens)', 'µg/mL', 25),
  ('PRT1125 (LCDQCVTSPGCLHGLCGEPGQCICTDGWDGELCD; listed as Homo sapiens)', 'µg/mL', 12.5),
  ('PRT1094 (GDNSCKSNPCHNGGVCHSRWDDFSCSCPALTSGKACE; listed as Homo sapiens)', 'µg/mL', 12.5),
  ('PRT1158 (IQTSCESFPLRNNATCKKCEKDYPCSCISGFTEKNCE; listed as Homo sapiens)', 'µg/mL', 12.5),
  ('PRT1087 (HEEPCGPSHKSFCLNGGLCYVIPTIPSPFCRCVENYTGARCE; listed as Homo sapiens)', 'µg/mL', 25),
  ('PRT1134 (NVDDCLMRPCANGATCLDGINRFSCLCPEGFAGRFCT; listed as Homo sapiens)', 'µg/mL', 12.5),
  ('PRT1149 (APSVCQQDVCHNGGTCHAIFLSSGIVSFQCDCPLHFTGRFCE; listed as Homo sapiens)', 'µg/mL', 12.5),
  ('PRT1106 (NTDECASQPCLHGGLCVDGENRYSCNCTGSGFTGTHCE; listed as Homo sapiens)', 'µg/mL', 25),
  ('PRT1173 (KCIPHPGCVHGICNEPWQCLCETNWGGQLCD; listed as Homo sapiens)', 'µg/mL', 50),
  ('PRT1111 (SEDMCSPDPCFNGGTCLVTWNDFHCTCPANFTGPTCA; listed as Homo sapiens)', 'µg/mL', 12.5),
  ('PRT1051 (EQKLCKLRKGNCSSTVCGQDLQSHLCMCAEGYALSRDRKYCE; listed as Homo sapiens)', 'µg/mL', 12.5),
  ('PRT1155 (QSVSCLNNLCLHQSLCIPDQSFSYSCLCTLGWVGRYCE; listed as Homo sapiens)', 'µg/mL', 12.5);

----------
System: Moraxella catarrhalis
Experiment: MIC against Gram-negative bacteria: Moraxella catarrhalis
Type: cell-based
Conditions: M. catarrhalis; 10 h cultivation at 37° C.; 5×10^5 CFU/mL
QUANTITY: MIC (μg/mL) M. catarrhalis

INSERT INTO measurements (substance, test_system, observed_value) VALUES
  ('PRT789 (YGNDCHQRCQCQNGATCDHVTGECRCPPGYTGAFCE; listed as Homo sapiens)', 'Moraxella catarrhalis', '25 µg/mL'),
  ('PRT148 (LTDICSVSNGGCHPDASCSSTLGSLPLCTCLPGYTGN; listed as Homo sapiens)', 'Moraxella catarrhalis', '12.5 µg/mL'),
  ('PRT836 (FGHDCSLTCDDCRNGGTCLLGLDGCDCPEGWTGLICN; listed as Homo sapiens)', 'Moraxella catarrhalis', '12.5 µg/mL');

----------
Form field: MIC against M. catarrhalis (one value per entry).
System: Moraxella catarrhalis
Experiment: MIC against Gram-negative bacteria: Moraxella catarrhalis
Type: cell-based
Details: 96-well plate, 5×10^5 CFU/mL, 37° C., 10 h
QUANTITY: MIC against M. catarrhalis (µg/mL)

INSERT INTO measurements (substance, observed_value) VALUES
  ('PRT481 (EITACSSSPCFHDGTCVLDKAGSYKCACLAGYTGQRCE; listed as Homo sapiens)', 50),
  ('PRT528 (CSCNSNGQLGSCHPLTGDCINQEPKDSSPAEECDD; listed as Homo sapiens)', 25),
  ('PRT451 (SFYCSCRPGYKLMSDKRTCVDIDE; listed as Homo sapiens)', 50),
  ('PRT522 (CVCNGHAEVCNINNPEKLFRCECQHHTCGETCDRCCTGYNQRRWRPAAWEQSHECEA; listed as Homo sapiens)', 12.5),
  ('PRT562 (CQCHNNIDTTDPEACDKETGRCLKCLYHTEGEHCQFCRFGYYGDALQQDCRK; listed as Homo sapiens)', 25),
  ('PRT537 (CDCNGNSNECLDGSGYCVHCQRNTTGEHCEKCLDGYIGDSIRGAPQFCQP; listed as Homo sapiens)', 25),
  ('PRT457 (DVDECLQGRCEQVCVNSPGSYTCHCDGRGGLKLSQDMDTCE; listed as Homo sapiens)', 50),
  ('PRT494 (CNCSLVGSTHHRCDVVTGHCQCKSKFGGRACDQCSLGYRDFPDCVP; listed as Homo sapiens)', 25),
  ('PRT475 (VQNTCKDNPCGRGQCLITQSPPYYRCVCKHPYTGPSCS; listed as Homo sapiens)', 12.5),
  ('PRT462 (DVDECLEGLDDCHYNQLCENTPGGHRCSCPRGYRMQGPS; listed as Homo sapiens)', 50);

----------
Tested on: Moraxella catarrhalis
Assay: MIC against Gram-negative bacteria: Moraxella catarrhalis
Type: cell-based
Conditions: Moraxella catarrhalis; 96-well plate, 5×10^5 CFU/mL, 37° C., 10 h
Description: 1. Gram-negative bacteria, such as E. coli BL21, Pseudomonas aeruginosa, Klebsiella pneumonia, Enterobacter cloacae, Aeromonas hydrophila, Citrobacter diversus, Moraxella catarrhalis, Proteus mirabilis, Proteus vulgaris, Serratia marcescens, etc were streaked on solid LB medium and cultured respectively. Then, typical clones were picked, inoculated into common liquid LB medium respectively, and cultured at 37° C. with shaking at 185 rpm until the McFarland specific turbidity was 0.5. […]
Form field: MIC against M. catarrhalis (one value per entry).
QUANTITY: MIC against M. catarrhalis (µg/mL)

INSERT INTO measurements (substance, test_system, quantity, unit_text, observed_value) VALUES
  ('PRT1256 (DVDECQDNNGGCQQICVNAMGSYECQCHSGFFLSDNQ; listed as Homo sapiens)', 'Moraxella catarrhalis', 'MIC against M. catarrhalis', 'µg/mL', 50),
  ('PRT1272 (DVDECVEGTDNCHIDAICQNTPRSYKCICKSGYTGDGKHCK; listed as Homo sapiens)', 'Moraxella catarrhalis', 'MIC against M. catarrhalis', 'µg/mL', 12.5),
  ('PRT1329 (LPAVCTPPCSAHATCKENNTCECNLDYEGDGITCT; listed as Homo sapiens)', 'Moraxella catarrhalis', 'MIC against M. catarrhalis', 'µg/mL', 12.5),
  ('PRT1248 (SACYCSATSRCDPQTGACLCHAGWWGRSCN; listed as Homo sapiens)', 'Moraxella catarrhalis', 'MIC against M. catarrhalis', 'µg/mL', 12.5),
  ('PRT1252 (CPLTCDDISGQVTCPPDWPCGSPGCWCPEGQVLGSEGWCV; listed as Homo sapiens)', 'Moraxella catarrhalis', 'MIC against M. catarrhalis', 'µg/mL', 25),
  ('PRT1323 (DCIECPGGAGSPCNGRGSCAEGMEGNGTCSCQEGFGGTACE; listed as Homo sapiens)', 'Moraxella catarrhalis', 'MIC against M. catarrhalis', 'µg/mL', 12.5),
  ('PRT1290 (KCNPCLSNPCKNDGTCNSDPVDFYRCTCPYGFKGQDCD; listed as Homo sapiens)', 'Moraxella catarrhalis', 'MIC against M. catarrhalis', 'µg/mL', 25),
  ('PRT1244 (CGSTCPTCVQGSCDTVTGDCVCSAGYWGPSCN; listed as Homo sapiens)', 'Moraxella catarrhalis', 'MIC against M. catarrhalis', 'µg/mL', 12.5),
  ('PRT1312 (LQPVCTPPCAPEAVCRAGNSCECSLGYEGDGRVCT; listed as Homo sapiens)', 'Moraxella catarrhalis', 'MIC against M. catarrhalis', 'µg/mL', 12.5),
  ('PRT1283 (NTDDCVDHACANGGVCVDGVGNYTCQCPLQYEGKACE; listed as Homo sapiens)', 'Moraxella catarrhalis', 'MIC against M. catarrhalis', 'µg/mL', 12.5),
  ('PRT1273 (DVDECEREDNAGCVHDCVNIPGNYRCTCYDGFHLAHDGHNCL; listed as Homo sapiens)', 'Moraxella catarrhalis', 'MIC against M. catarrhalis', 'µg/mL', 12.5),
  ('PRT1235 (IGPQCEEMCNGQGSCINGTKCICDPGYSGPTCK; listed as Homo sapiens)', 'Moraxella catarrhalis', 'MIC against M. catarrhalis', 'µg/mL', 12.5),
  ('PRT1222 (SVNYCECNPCFNGGSCQSGVDSYYCHCPFGVFGKHCE; listed as Homo sapiens)', 'Moraxella catarrhalis', 'MIC against M. catarrhalis', 'µg/mL', 25),
  ('PRT1313 (VADLCQDGHGGCSEHANCSQVGTMVTCTCLPDYEGDGWSCR; listed as Homo sapiens)', 'Moraxella catarrhalis', 'MIC against M. catarrhalis', 'µg/mL', 12.5),
  ('PRT1321 (AIDECELDMRGGCHTDALCSYVGPGQSRCTCKLGFAGDGYQCS; listed as Homo sapiens)', 'Moraxella catarrhalis', 'MIC against M. catarrhalis', 'µg/mL', 50),
  ('PRT1269 (DIDECQTRNGGCDHFCKNIVGSFDCGCKKGFKLLTDEKSCQ; listed as Homo sapiens)', 'Moraxella catarrhalis', 'MIC against M. catarrhalis', 'µg/mL', 50),
  ('PRT1335 (MTDICKSDNPCHRNANCTTVAPGRTECICQKGYVGDGLTCY; listed as Homo sapiens)', 'Moraxella catarrhalis', 'MIC against M. catarrhalis', 'µg/mL', 50),
  ('PRT1282 (SLDSCSSGPCENGGTCHAQEGEDAPFTCSCPTGFEGPTCG; listed as Homo sapiens)', 'Moraxella catarrhalis', 'MIC against M. catarrhalis', 'µg/mL', 25);
